- RUN DESCRIPTION: Cytotoxicity against human L540cy cells assessed as reduction in cell growth incubated for 4 days by CellTiter-Glo luminescent assay
- Type: functional, cell-based
- MEASUREMENT SETUP: 96 h
QUANTITY NAME: pEC50
For clarity, pEC50 is expressed as the negative log10 of concentration in mol/L.

Q: What value of measured pEC50 is listed for O=C(/C=C/c1cccnc1)NCCCCC1CCN(C(=O)c2ccccc2)CC1 ?
Result: 8.17

Q: Same for Nc1cccc(C(=O)N2CCC(CCCCNC(=O)/C=C/c3cccnc3)CC2)c1
Result: 8.20

----------
- RUN DESCRIPTION: Apparent permeability across basolateral to apical side in human Caco-2 cells incubated for 2 hrs by HPLC-MS analysis
- Format: ADME, cell-based
For each entry below, report its Papp B→A at 2 h value.
Answer in ×10⁻⁶ cm/s, number only, no unit symbol.

Q: So what does the record say about Papp B→A at 2 h for CC[C@H](C)[C@@H]([C@@H](CC(=O)N1CCC[C@H]1[C@H](OC)[C@@H](C)C(=O)N[C@@H](Cc1ccccc1)c1nnc(-c2ccccc2)o1)OC)N(C)C(=O)[C@@H](NC(=O)[C@H](C(C)C)N(C)CCCC(=O)O)C(C)C ?
Result: 2.9

Q: Param item: CC[C@H](C)[C@@H]([C@@H](CC(=O)N1CCC[C@H]1[C@H](OC)[C@@H](C)C(=O)N[C@H](Cc1ccccc1)c1nnc(-c2ccccc2)o1)OC)N(C)C(=O)[C@@H](NC(=O)[C@H](C(C)C)N(C)CCCC(=O)O)C(C)C
Result: 4.5

----------
- Tested on: LoVo
- RUN DESCRIPTION: Cytotoxicity against human LoVo cells assessed as inhibition of cell growth incubated for 72 hrs by Promega CellTiter-Glo assay
- Format: functional, cell-based
QUANTITY NAME: IC50

Q: Provide value of IC50 for this record tested with LoVo: CC(C)(C)[C@H](c1cc(-c2cc(F)ccc2F)cn1Cc1ccccc1)N(CCCN)C(=O)CO
Result: < 30 pM

----------
- System: SK-BR-3
- RUN DESCRIPTION: Cytotoxicity against human SK-BR-3 cells incubated for 144 hrs by CellTiter-Glo luminescent assay
- Assay type: functional, cell-based
- MEASUREMENT SETUP: SK-BR-3, 144 h
QUANTITY NAME: pIC50
Here pIC50 is given on a logarithmic scale as minus log10 of the concentration in mol/L.

Q: Test system SK-BR-3; read-out pIC50; what value for Cc1cccc2c(O)cc3c(c12)[C@H](CCl)CN3C(=O)c1cn2cc(NC(=O)c3ccc(O)cc3)ccc2n1 ?
Result: 10.05

----------
Field: pKd. Provide a value for each of the molecules that follow.
- TARGET OR SYSTEM: Tubulin
- RUN DESCRIPTION: Displacement of fluorescent Maytansine probe from tubulin (unknown origin) assessed as dissociation constant by competitive binding based fluorescence anisotropy
Field pKd (float): negative decimal logarithm of the concentration in molar.

Q: # get_value(readout='pKd', item= COc1cc2cc(c1Cl)N(C)C(=O)C[C@H](OC(C)=O)[C@@]1(C)O[C@H]1[C@H](C)[C@@H]1C[C@@](O)(NC(=O)O1)[C@H](OC)/C=C/C=C(\C)C2 )
Result: 7.96

Q: Same read-out for C#CCCCCC(=O)O[C@H]1CC(=O)N(C)c2cc(cc(OC)c2Cl)C/C(C)=C/C=C/[C@@H](OC)[C@@]2(O)C[C@H](OC(=O)N2)[C@@H](C)[C@@H]2O[C@]12C ?
Result: 7.70

Q: Again, but for COc1cc2cc(c1Cl)N(C)C(=O)C[C@H](OC(=O)c1ccccc1)[C@@]1(C)O[C@H]1[C@H](C)[C@@H]1C[C@@](O)(NC(=O)O1)[C@H](OC)/C=C/C=C(\C)C2
Result: 7.29

Q: Cool, now COc1cc2cc(c1Cl)N(C)C(=O)C[C@H](OC(=O)[C@H](C)N(C)C(C)=O)[C@]1(C)O[C@H]1[C@H](C)[C@@H]1C[C@@](O)(NC(=O)O1)[C@H](OC)/C=C/C=C(\C)C2
Result: 7.85
